- assay_method_text: pKa, pI and charge distribution of buffers
- experimental_setup: Table 2
Non-standard residues stand in square brackets, D forms with d. Residues, ends and D or L forms follow the SMILES beside them. Orn = NCCC[C@H](N)C(=O)O
Provide the reported pI of each item.

The following molecules have reported results that may help.
molecule: N[C@@H](Cc1ccccc1)C(=O)N[C@@H](Cc1cnc[nH]1)C(=O)O [Phe-His] (H-Phe-His-OH)
observed_result: 7.20
//
molecule: N[C@@H](CC(=O)O)C(=O)N[C@@H](CC(=O)O)C(=O)O [Asp-Asp] (H-Asp-Asp-OH)
observed_result: 3.05
//
molecule: N[C@@H](Cc1cnc[nH]1)C(=O)NCC(=O)O [His-Gly] (H-His-Gly-OH)
observed_result: 6.90
//
molecule: C[C@H](N)C(=O)N[C@@H](Cc1cnc[nH]1)C(=O)O [Ala-His] (H-Ala-His-OH)
observed_result: 7.55
//
molecule: NC(N)=NCCC[C@H](N)C(=O)N[C@@H](CC(=O)O)C(=O)O [Arg-Asp] (H-Arg-Asp-OH)
observed_result: 6.08
//
molecule: NC(=O)CC[C@H](N)C(=O)N[C@@H](Cc1cnc[nH]1)C(=O)O [GIn-His] (H-Gln-His-OH)
observed_result: 7.20
//
molecule: CC(C)C[C@H](NC(=O)[C@@H](N)Cc1cnc[nH]1)C(=O)O [His-Leu] (H-His-Leu-OH)
observed_result: 6.95
//
molecule: NC(=O)C[C@H](N)C(=O)N[C@@H](Cc1cnc[nH]1)C(=O)O [Asn-His] (H-Asn-His-OH)
observed_result: 7.00

Here are 2 molecules. What values of pI were reported for them?
1. O=C(O)[C@H](Cc1c[nH]cn1)NC(=O)[C@@H]1CC(O)CN1 (stereo partly drawn) [Hydroxyproline-His]
2. N[C@@H](Cc1cnc[nH]1)C(=O)N[C@@H](Cc1ccc(O)cc1)C(=O)O [His-Tyr] (H-His-Tyr-OH)

7.45
6.95

// for each molecule in input: emit pI
1. NC(N)=NCCC[C@H](NC(=O)[C@@H](N)CCC(=O)O)C(=O)O [Glu-Arg] (H-Glu-Arg-OH)
2. N[C@@H](Cc1cnc[nH]1)C(=O)N[C@@H](Cc1cnc[nH]1)C(=O)O
3. NC(=O)CC[C@H](NC(=O)[C@@H](N)Cc1cnc[nH]1)C(=O)O [His-Gln] (H-His-Gln-OH)
4. NCCC[C@H](NC(=O)[C@@H](N)Cc1c[nH]cn1)C(=O)O [His-Ornithine] (H-His-[Orn]-OH)
5. NCCCC[C@H](N)C(=O)N[C@@H](Cc1cnc[nH]1)C(=O)O
6. NCCC(=O)N[C@@H](Cc1c[nH]cn1)C(=O)O
7. N[C@@H](Cc1cnc[nH]1)C(=O)N[C@@H](CC(=O)O)C(=O)O [His-Asp] (H-His-Asp-OH)
8. C[C@H](NC(=O)[C@@H](N)Cc1cnc[nH]1)C(=O)O [His-Ala] (H-His-Ala-OH)

[6.00, 7.40, 6.95, 9.40, 9.50, 7.70, 5.22, 6.95]
